Each recorded value in this set is attributed to patent US10457709B2.

# Tested on: Candida albicans clinical strains
# Procedure details: MIC, clinical yeast strains
# Type: cell-based
# Parameters: unit: μg/ml
# Condition summary: Candida albicans clinical yeast strain 4
Square brackets hold non-standard residues; d marks the D form. Peptide text beside a SMILES is read from it.
Measure name: Minimum inhibitory concentration
One number for each entry.

{"columns": ["Compound", "Minimum inhibitory concentration"],
 "data": [
  ["CC(C)C[C@@H](NC(=O)[C@H](N)CCCNC(=N)N)C(=O)N[C@H](CCCCN)C(=O)N[C@H](Cc1c[nH]c2ccccc12)C(=O)N[C@H](Cc1ccccc1)C(=O)N[C@H](CC(C)C)C(=O)N[C@H](CC(C)C)C(=O)N[C@H](Cc1ccccc1)C(=O)N[C@H](CCCNC(=N)N)C(=O)N[C@H](CCCCN)C(=O)N[C@H](CCCNC(=N)N)C(=O)O [Chain308D] (H-[dR][dL][dK][dW][dF][dL][dL][dF][dR][dK][dR]-OH)", 16]
]}

// next entry
Query: Item under review: CC(C)C[C@@H](NC(=O)[C@@H](CCCCN)NC(=O)[C@@H](CCCCN)NC(=O)[C@@H](Cc1ccccc1)NC(=O)[C@@H](CC(C)C)NC(=O)[C@@H](Cc1c[nH]c2ccccc12)NC(=O)[C@@H](CCCNC(=N)N)NC(=O)[C@@H](Cc1c[nH]c2ccccc12)NC(=O)[C@@H](CCCCN)NC(=O)[C@@H](CCCNC(=N)N)NC(=O)[C@H](N)CCCCN)C(=O)O [Chain310D] (H-[dK][dR][dK][dW][dR][dW][dL][dF][dK][dK][dL]-OH) . Reported Minimum inhibitory concentration?
Result: 16

* * *

# System: Candida albicans clinical strains
# Procedure details: MIC, clinical yeast strains
# Assay type: cell-based
# Design: unit: μg/ml
# Condition summary: Candida albicans clinical yeast strain 2
Square brackets hold non-standard residues; d marks the D form. Peptide text beside a SMILES is read from it.
Measure name: Minimum inhibitory concentration
One number for each entry.

{"columns": ["Molecule", "Minimum inhibitory concentration"],
 "data": [
  ["CC(C)C[C@@H](NC(=O)[C@@H](Cc1c[nH]c2ccccc12)NC(=O)[C@@H](Cc1ccccc1)NC(=O)[C@@H](Cc1c[nH]c2ccccc12)NC(=O)[C@@H](CCCCN)NC(=O)[C@@H](CCCNC(=N)N)NC(=O)[C@H](N)Cc1c[nH]c2ccccc12)C(=O)N[C@H](Cc1ccccc1)C(=O)N[C@H](CCCCN)C(=O)N[C@H](CCCCN)C(=O)N[C@H](CCCNC(=N)N)C(=O)O [Chain309D] (H-[dW][dR][dK][dW][dF][dW][dL][dF][dK][dK][dR]-OH)", 32],
  ["CC(C)C[C@@H](NC(=O)[C@H](N)CCCNC(=N)N)C(=O)N[C@H](CCCCN)C(=O)N[C@H](Cc1c[nH]c2ccccc12)C(=O)N[C@H](Cc1ccccc1)C(=O)N[C@H](CC(C)C)C(=O)N[C@H](CC(C)C)C(=O)N[C@H](Cc1ccccc1)C(=O)N[C@H](CCCNC(=N)N)C(=O)N[C@H](CCCCN)C(=O)N[C@H](CCCNC(=N)N)C(=O)O [Chain308D] (H-[dR][dL][dK][dW][dF][dL][dL][dF][dR][dK][dR]-OH)", 16],
  ["CC[C@@H](C)[C@@H](NC(=O)[C@@H](Cc1c[nH]c2ccccc12)NC(=O)[C@H](N)CCCCN)C(=O)N[C@@H](C(=O)N[C@H](Cc1c[nH]c2ccccc12)C(=O)N[C@H](CCCNC(=N)N)C(=O)N[C@H](Cc1c[nH]c2ccccc12)C(=O)N[C@H](CCCNC(=N)N)C(=O)N[C@H](Cc1ccccc1)C(=O)N[C@H](CCCCN)C(=O)N[C@H](CCCNC(=N)N)C(=O)O)C(C)C [Chain201D] (H-[dK][dW][dI][dV][dW][dR][dW][dR][dF][dK][dR]-OH)", 8],
  ["CC[C@@H](C)[C@@H](N)C(=O)N[C@H](Cc1c[nH]c2ccccc12)C(=O)N[C@H](CCCCN)C(=O)N[C@H](CCCNC(=N)N)C(=O)N[C@H](Cc1ccccc1)C(=O)N[C@H](CCCNC(=N)N)C(=O)N[C@H](CC(C)C)C(=O)N[C@H](Cc1ccccc1)C(=O)N[C@H](CCCCN)C(=O)N[C@H](CCCCN)C(=O)N[C@H](Cc1c[nH]c2ccccc12)C(=O)O [Chain304D] (H-[dI][dW][dK][dR][dF][dR][dL][dF][dK][dK][dW]-OH)", 16],
  ["CC(C)C[C@@H](NC(=O)[C@@H](CCCCN)NC(=O)[C@@H](CCCCN)NC(=O)[C@@H](Cc1ccccc1)NC(=O)[C@@H](CC(C)C)NC(=O)[C@@H](Cc1c[nH]c2ccccc12)NC(=O)[C@@H](CCCNC(=N)N)NC(=O)[C@@H](Cc1c[nH]c2ccccc12)NC(=O)[C@@H](CCCCN)NC(=O)[C@@H](CCCNC(=N)N)NC(=O)[C@H](N)CCCCN)C(=O)O [Chain310D] (H-[dK][dR][dK][dW][dR][dW][dL][dF][dK][dK][dL]-OH)", 16]
]}

Each molecule below has a recorded value; state its Minimum inhibitory concentration.
1. CC[C@@H](C)[C@@H](NC(=O)[C@@H](CC(C)C)NC(=O)[C@@H](CCCNC(=N)N)NC(=O)[C@H](N)CCCNC(=N)N)C(=O)N[C@H](Cc1c[nH]c2ccccc12)C(=O)N[C@H](CCCNC(=N)N)C(=O)N[C@H](CCCNC(=N)N)C(=O)N[C@H](Cc1ccccc1)C(=O)N[C@H](CCCCN)C(=O)N[C@H](Cc1c[nH]c2ccccc12)C(=O)N[C@H](CC(C)C)C(=O)N[C@H](CCCNC(=N)N)C(=O)O [Chain204D] (H-[dR][dR][dL][dI][dW][dR][dR][dF][dK][dW][dL][dR]-OH)
2. CC(C)C[C@@H](NC(=O)[C@H](N)CCCCN)C(=O)N[C@H](CCCCN)C(=O)N[C@H](Cc1c[nH]c2ccccc12)C(=O)N[C@H](Cc1ccccc1)C(=O)N[C@H](Cc1c[nH]c2ccccc12)C(=O)N[C@H](CC(C)C)C(=O)N[C@H](Cc1ccccc1)C(=O)N[C@H](CCCCN)C(=O)N[C@H](CCCCN)C(=O)N[C@H](CCCNC(=N)N)C(=O)O [Chain311D] (H-[dK][dL][dK][dW][dF][dW][dL][dF][dK][dK][dR]-OH)
3. C[C@@H]1[C@H](O)[C@@H](C)/C=C/C=C/C=C/C=C/C=C/C=C/C=C/[C@H](O[C@@H]2O[C@H](C)[C@@H](O)[C@H](N)[C@@H]2O)C[C@@H]2O[C@](O)(C[C@@H](O)C[C@@H](O)[C@H](O)CC[C@@H](O)C[C@@H](O)CC(=O)O[C@H]1C)C[C@H](O)[C@H]2C(=O)O [Amphotericin B]

Result:
1: 8; 2: 8; 3: 0.5

* * *

So I've got a bunch of sequences here, and I need their Minimum inhibitory concentration, Pseudomonas aeruginosa (ATCC 27853) values.
# Tested on: Pseudomonas aeruginosa (ATCC 27853)
# Procedure details: microbe, parasite or virus in culture
# Format: cell-based
# Condition summary: ATCC 27853
Ends that are not written are not given here.
One number for each entry, in mg/L.

{"columns": ["Query sequence", "Target system", "Measured"],
 "data": [
  ["ILKRWWLFKKL [Chain302]", "Pseudomonas aeruginosa (ATCC 27853)", 16],
  ["KRKWRWLFKKL [Chain310]", "Pseudomonas aeruginosa (ATCC 27853)", 1],
  ["KWIVWRWRFKR [Chain201]", "Pseudomonas aeruginosa (ATCC 27853)", 8],
  ["IWKRFRLFKKW [Chain304]", "Pseudomonas aeruginosa (ATCC 27853)", 8],
  ["WRKWFWLFKKR [Chain309]", "Pseudomonas aeruginosa (ATCC 27853)", 8]
]}

Each sequence below has a recorded value; state its Minimum inhibitory concentration, Pseudomonas aeruginosa (ATCC 27853).
1. RKIVKKRTFKR [Chain202]
2. RRLIWRRFKWLR [Chain204]
3. WRILRWRKLKR [Chain208]

Result:
1
4
32

Each sequence below has a recorded value; state its Minimum inhibitory concentration, Pseudomonas aeruginosa (ATCC 27853).
1. RLKWFWLRKLK [Chain305]
2. RLKWFLLFRKR [Chain308]
3. WIRLHWKRLRK [Chain106]
4. RLKRFRLFRKRK [Chain313]
5. IIKRFRLFKKL [Chain301]
6. RLKRWRLFRKR [Chain306]

Result:
16
2
64
64
64
64

Each sequence below has a recorded value; state its Minimum inhibitory concentration, Pseudomonas aeruginosa (ATCC 27853).
1. KLKWFWLFKKR [Chain311]
2. RLKWFWLFRKR [Chain307]

Result:
8
1
